# test-system: T1, full-length recombinant human PAD4 (human, UniProt Q9UM07 1-663)
# T1 construct: Full-length recombinant; also called peptidylarginine deiminase 4
# T1 sequence (Q9UM07 whole entry): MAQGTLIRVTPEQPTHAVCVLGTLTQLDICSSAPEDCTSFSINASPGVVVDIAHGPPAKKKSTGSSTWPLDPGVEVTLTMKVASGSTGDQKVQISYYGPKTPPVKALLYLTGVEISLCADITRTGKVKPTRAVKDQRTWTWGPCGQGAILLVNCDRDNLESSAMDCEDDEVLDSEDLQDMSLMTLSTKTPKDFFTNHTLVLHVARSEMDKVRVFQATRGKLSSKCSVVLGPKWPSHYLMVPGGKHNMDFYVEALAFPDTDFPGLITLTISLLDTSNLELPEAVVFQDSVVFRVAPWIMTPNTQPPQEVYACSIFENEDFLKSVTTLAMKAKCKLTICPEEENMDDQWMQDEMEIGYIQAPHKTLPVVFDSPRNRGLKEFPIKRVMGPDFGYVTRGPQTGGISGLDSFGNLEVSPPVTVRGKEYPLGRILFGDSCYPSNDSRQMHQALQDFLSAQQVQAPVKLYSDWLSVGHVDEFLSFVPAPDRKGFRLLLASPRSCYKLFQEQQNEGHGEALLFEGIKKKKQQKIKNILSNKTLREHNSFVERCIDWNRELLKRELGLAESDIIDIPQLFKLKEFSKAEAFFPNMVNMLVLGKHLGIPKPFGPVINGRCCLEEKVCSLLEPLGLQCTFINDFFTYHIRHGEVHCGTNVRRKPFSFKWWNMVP
# method-notes: ELISA, immobilized human PAD4
So I've got a bunch of binders here, and I need their O.D. 490/630 at 0.5 µg/mL values.
One number for each entry.

For each of the binders below, state O.D. 490/630 at 0.5 µg/mL.
1. humanized anti-PAD4 antibody derived from G8, VH H4.15 / VL L4.17 (antibody, human IgG1, kappa, V domains shown, IgG1 kappa; also called G8 H4.15/L4.17) VH: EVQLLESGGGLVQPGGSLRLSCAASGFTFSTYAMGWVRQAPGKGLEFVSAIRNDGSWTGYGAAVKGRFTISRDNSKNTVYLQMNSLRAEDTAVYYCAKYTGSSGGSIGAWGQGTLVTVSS VL: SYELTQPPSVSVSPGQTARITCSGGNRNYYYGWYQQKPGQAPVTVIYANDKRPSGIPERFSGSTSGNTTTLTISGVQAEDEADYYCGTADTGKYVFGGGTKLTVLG
2. humanized anti-PAD4 antibody derived from H7, VH H4.15 / VL L4.15 (antibody, IgG1, V domains shown, IgG1 kappa; also called H7 H4.15/L4.15) VH: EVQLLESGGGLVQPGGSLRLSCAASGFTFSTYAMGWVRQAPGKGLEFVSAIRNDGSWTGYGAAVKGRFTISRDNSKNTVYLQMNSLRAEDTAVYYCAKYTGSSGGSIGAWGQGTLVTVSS VL: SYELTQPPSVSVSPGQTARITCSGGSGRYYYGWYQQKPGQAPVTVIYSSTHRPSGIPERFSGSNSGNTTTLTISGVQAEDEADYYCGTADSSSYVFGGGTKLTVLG
3. humanized anti-PAD4 antibody derived from H7, VH H4.32 / VL L4.06 (antibody, IgG1, V domains shown, IgG1 kappa; also called H7 H4.32/L4.06) VH: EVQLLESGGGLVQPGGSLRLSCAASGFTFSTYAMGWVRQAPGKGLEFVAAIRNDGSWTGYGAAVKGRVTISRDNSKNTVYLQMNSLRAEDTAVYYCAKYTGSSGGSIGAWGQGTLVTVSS VL: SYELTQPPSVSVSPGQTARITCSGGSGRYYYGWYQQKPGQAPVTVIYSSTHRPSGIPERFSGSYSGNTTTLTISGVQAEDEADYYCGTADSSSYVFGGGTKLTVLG
4. humanized anti-PAD4 antibody derived from G8, VH H4.32 / VL L4.00 (antibody, IgG1, V domains shown, IgG1 kappa; also called G8 H4.32/L4.00) VH: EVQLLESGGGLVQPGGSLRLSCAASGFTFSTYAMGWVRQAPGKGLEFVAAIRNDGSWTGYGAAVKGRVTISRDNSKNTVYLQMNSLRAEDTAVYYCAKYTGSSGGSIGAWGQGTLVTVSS VL: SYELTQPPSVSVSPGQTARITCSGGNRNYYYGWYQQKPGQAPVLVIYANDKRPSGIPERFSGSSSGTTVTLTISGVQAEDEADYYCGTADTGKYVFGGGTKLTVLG
5. humanized anti-PAD4 antibody derived from G8, VH H4.15 / VL L4.00 (antibody, human IgG1, kappa, V domains shown, IgG1 kappa; also called G8 H4.15/L4.00) VH: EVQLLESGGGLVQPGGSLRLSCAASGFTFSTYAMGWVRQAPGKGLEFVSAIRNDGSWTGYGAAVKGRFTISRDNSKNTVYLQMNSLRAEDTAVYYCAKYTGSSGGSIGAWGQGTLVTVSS VL: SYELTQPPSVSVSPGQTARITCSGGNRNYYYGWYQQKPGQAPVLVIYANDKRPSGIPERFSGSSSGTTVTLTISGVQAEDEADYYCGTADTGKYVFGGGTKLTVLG

1: 1.82; 2: 1.83; 3: 1.81; 4: 1.91; 5: 1.86
